Attribution: patent US4568693A

target: aldose reductase (Bos taurus, UniProt P16116); construct: the preparation of the enzyme from bovine lens; from tissue; host or cells: bovine lens; assay: in vitro aldose reductase inhibition (modified Hayman and Kinoshita procedure); type: biochemical, bovine; settings: 10^-6 molar; read-out: % Inhibition at Different Molar Concentration (in vitro), 10^-6
metric: inhibition at 1 µM (%)

// solved cases for inhibition at 1 µM follow
- molecule: "CN(CC(=O)O)C(=S)c1cccc2c([N+](=O)[O-])cccc12"
  inhibition at 1 µM, %: 83
- molecule: "CN(CC(=O)O)C(=S)c1cccc2c(Cl)cccc12"
  inhibition at 1 µM, %: 83
- molecule: "Cc1ccc2c(C(=S)N(C)CC(=O)O)cccc2c1Br"
  inhibition at 1 µM, %: 88
- molecule: "O=C(O)CNC(=S)c1cccc2c(Br)cccc12"
  inhibition at 1 µM, %: 14
- molecule: "COc1c(Cl)cc(C(=S)N(C)CC(=O)O)c2ccccc12"
  inhibition at 1 µM, %: 78
- molecule: "CC(C)c1cccc2c(C(=S)N(C)CC(=O)O)cccc12"
  inhibition at 1 µM, %: 72

I: CCCCN(CC(=O)O)C(=S)c1cccc2c(Br)cccc12
II: CN(CC(=O)O)C(=S)c1cccc2c(Br)c(OCc3cccc(C(F)(F)F)c3)ccc12
Task item: Hey, between I and II which has a smaller measured inhibition at 1 µM? Lab note: record the label of whichever item you select.
Reply: II

* * *

molecular target: aldose reductase (Bos taurus); construct: the preparation of the enzyme from bovine lens; from tissue; host or cells: bovine lens; assay: in vitro aldose reductase inhibition (modified Hayman and Kinoshita procedure); assay type: biochemical, bovine; settings: 10^-5 molar; read-out: % Inhibition at Different Molar Concentration (in vitro), 10^-5
metric: inhibition at 10 µM (%)

- molecule: "Cc1cccc2c(C(=S)N(C)CC(=O)O)cccc12"
  metric: "inhibition at 10 µM"
  unitAnnotation: "%"
  quantitativeReadout: 89
- molecule: "CN(CC(=O)O)C(=S)c1cccc2c(Br)c(OCc3ccc(Cl)cc3)ccc12 [Example 53a]"
  metric: "inhibition at 10 µM"
  unitAnnotation: "%"
  quantitativeReadout: 88
- molecule: "COCCCOc1ccc2c(C(=S)N(C)CC(=O)O)cccc2c1Br"
  metric: "inhibition at 10 µM"
  unitAnnotation: "%"
  quantitativeReadout: 92
- molecule: "C=C(C)c1cccc2c(C(=S)N(C)CC(=O)O)cccc12"
  metric: "inhibition at 10 µM"
  unitAnnotation: "%"
  quantitativeReadout: 92

* * *

biological target: aldose reductase (Bos taurus, UniProt P16116); construct: the preparation of the enzyme from bovine lens; from tissue; host or cells: bovine lens; test: in vitro aldose reductase inhibition (modified Hayman and Kinoshita procedure); format: biochemical, bovine; details: 10^-7 molar; read-out: % Inhibition at Different Molar Concentration (in vitro), 10^-7
metric: inhibition at 0.1 µM (%)

- molecule: "O=C(O)CN(Cc1ccccc1)C(=S)c1cccc2c(Br)cccc12"
  metric: "inhibition at 0.1 µM"
  unitAnnotation: "%"
  quantitativeReadout: 20
- molecule: "CN(CC(=O)O)C(=S)c1cccc2c(Cl)cc(Cl)cc12"
  metric: "inhibition at 0.1 µM"
  unitAnnotation: "%"
  quantitativeReadout: 29

a: COc1ccc2c(C(=O)N(C)CC(=O)O)cccc2c1C(F)(F)F
b: CN(CC(=O)O)C(=S)c1cccc2c(Cl)cccc12
c: C=C(C)c1cccc2c(C(=S)N(C)CC(=O)O)cccc12
Task item: Please list the entries, largest inhibition at 0.1 µM first. Output the labels ranked as instructed.
Reply: a, b, c
